Origin of the recorded values: paper PMC4552634

Test system: P. falciparum stage V gametocytes
Design: BacTiter-Glo ATP luminescence viability of purified stage V gametocytes in 384-well plates, per cent inhibition versus DMSO
assay.conditions: 48 h, 5 µM; inhibitor
Screen size: about 13,000 compounds; about 3,200 (25%) showed an effect of 50% or more. The list shows a part of the results.
Consider the following compounds and their measured % Inhibition readings.
quantity: % Inhibition (%)

CCCCCCOc1ccc(C(=O)NCCCC2CCN(CCCCCNC(=O)C=Cc3ccc(Cl)c(Cl)c3)CC2)cc1 [TCMDC-139575]	7.423
O=C(/C=C/c1ccc(Cl)c(Cl)c1)NCCCCCN1CCC(C(=O)Nc2ccc3c(c2)OCO3)CC1 [TCMDC-136127]	-2.985
Cc1cc(N(C)C)nc(Nc2ccc(NC(=O)c3cccc(F)c3)cc2)n1 [TCMDC-124724]	10.45
O=C(C=Cc1ccc(Cl)c(Cl)c1)NCCCCCN1CCC(CCCNC(=O)c2ccc3c(c2)OCO3)CC1 [TCMDC-139574]	21.18
CC(C)(C(=O)Nc1ccc(C2CCC(NCC3CC3)CC2)c(Cl)c1)c1ccc(C(F)(F)F)cc1 (stereo not shown) [TCMDC-134642]	92.31
CC(C)(C(=O)Nc1ccc(N2CCC3(CCCN(CC4CC4)C3)CC2)c(Cl)c1)c1cccc(C(F)(F)F)c1 [TCMDC-134639]	-12.77
O=C(C=Cc1ccc(Cl)c(Cl)c1)NCCCCCN1CCCC(CCCNC(=O)c2ccc3c(c2)OCO3)C1 (stereo not shown) [TCMDC-139580]	81.7

* * *

Tested on: P. falciparum stage V gametocytes
Design: BacTiter-Glo ATP luminescence viability of purified stage V gametocytes in 384-well plates, per cent inhibition versus DMSO
assay.conditions: 48 h, 5 µM; inhibitor
Screen size: about 13,000 compounds; about 3,200 (25%) showed an effect of 50% or more. The list shows a part of the results.
quantity: % Inhibition (%)

Cc1cc(C(=O)CN2C(=O)NC3(CCOc4ccccc43)C2=O)c(C)n1Cc1ccc(F)cc1 (stereo not shown)	-0.05637
COc1ccccc1C1CN(CCNC(=O)c2ncc(C)[nH]2)Cc2ccccc2O1 (stereo not shown)	-1.409
O=C(CCc1ccccc1)N[C@H](Cc1c[nH]c2ccccc12)C(=O)N1CCC(NCc2ccc3c(c2)Cc2ccccc2-3)CC1	27.37
CN(C)CCNCc1nc(-c2ccc3c(Nc4ccc(Oc5ccccc5)cc4)ccnc3c2)cs1	95.14
N#Cc1cccc(NC(=O)c2cccc(S(=O)(=O)NC3CCN(CC4CCCCC4)C3)c2)c1 (stereo not shown)	83.68
O=C(/C=C/c1ccc(C(F)(F)F)cc1)N1CCC(CCN2CCC(c3c[nH]c4ccccc34)CC2)CC1	107.6
CCCSc1nc2c(c(=O)n1Cc1ccco1)C1(CCCCC1)Cc1ccccc1-2	-0.1623
Cc1ccc(-c2cc(C(=O)Nc3ccc(S(=O)(=O)N4CCCC(C)C4)cc3)[nH]n2)c(O)c1 (stereo not shown)	-50.15
CCCCCCN1CCCN(Cc2ccc(C(=O)Nc3ccc(F)c(F)c3)cc2)CC1	-27.76
CC1CCN(C(=O)C(Cc2c[nH]c3ccccc23)NS(=O)(=O)c2ccc(Cl)cc2)CC1 (stereo not shown)	54
COC(=O)c1cc(OC2CCOC2=O)cc2c1OC(C)(C)O2 (stereo not shown)	42.88
c1ccc(Oc2ccc(Nc3ccnc4cc(-c5csc(CNCCN6CCOCC6)n5)ccc34)cc2)cc1	5.088
O=C(NCCC1CCN(CCc2c[nH]c3ccccc23)CC1)Nc1ccc(Cl)c(Cl)c1	31.54
O=C(Nc1cccc(C(F)(F)F)c1)c1cccc(S(=O)(=O)NC2CCCN(CC3CCCCC3)C2)c1 (stereo not shown)	-38.48
Oc1cccc(-c2nc(-c3cccc(I)c3)c(-c3ccc(-c4nc(-c5cccc(O)c5)[nH]c4-c4cccc(I)c4)cc3)[nH]2)c1	42.71
CN(C)CCNCc1nc(-c2ccc3c(Nc4ccc(Cl)cc4F)ccnc3c2)cs1	16.78

* * *

System: P. falciparum stage V gametocytes
Set-up: BacTiter-Glo ATP luminescence viability of purified stage V gametocytes in 384-well plates, per cent inhibition versus DMSO
assay.conditions: 48 h, 5 µM; inhibitor
In all, about 13,000 compounds went through this assay and about 3,200 (25%) showed an effect of 50% or more. The list shows a part of the results.
Consider the following molecules and their measured % Inhibition readings.
quantity: % Inhibition (%)

COc1ccc(C(c2ccc(N(C)C)cc2)c2ccc(N(C)C)cc2)cc1 [TCMDC-125652]	48.26
COc1cc(Cc2cnc(N)nc2N)ccc1OCc1ccc(-c2csnn2)cc1 [TCMDC-138683]	-3.694
COc1ccc(CN2CCCN(Cc3cccc(C(=O)Nc4ccc(C)c(F)c4)c3)CC2)cc1 [TCMDC-135960]	-17.45
O=C(NCc1cccc(Br)c1)c1ccc(CNC2CCN(Cc3ccccc3)CC2)cc1 [TCMDC-140788]	24.75
C[C@H]1CN(Cc2cccc(-c3cc(CNC(=O)c4cccc(C(=O)c5ccc(Cl)c(Cl)c5)c4)ccc3F)c2)CCN1 [TCMDC-136245]	103.5
O=C(NCc1cccc(Cl)c1)c1ccc(CNC2CCN(Cc3ccccc3)CC2)cc1 [TCMDC-140785]	24.82
CC1CCN(Cc2cccc(C(=O)NCc3ccc(F)c(-c4cccc(CN5CCN[C@@H](C)C5)c4)c3)c2)CC1 [TCMDC-136206]	100.7
CC(C)=CC1C(C(=O)n2c(N)nc3ccccc32)C1(C)C (centres unmarked) [TCMDC-131688]	3.871

* * *

System: P. falciparum stage V gametocytes
Parameters: BacTiter-Glo ATP luminescence viability of purified stage V gametocytes in 384-well plates, per cent inhibition versus DMSO
assay.conditions: 48 h, 5 µM; inhibitor
The campaign covered roughly 13,000 compounds. About 3,200 (25%) showed an effect of 50% or more. This is one part of the list.
quantity: % Inhibition (%)

O=C(Nc1ccc(Oc2ccc(OC(F)(F)F)cc2)cc1)c1ccco1 [TCMDC-124049]	6.868
CC(C)c1ccc(NC(=O)c2ccc(CN3CCCN(CC4CCCCC4)CC3)cc2)cc1 [TCMDC-136417]	-19.72
Cc1cc(N2CCOCC2)nc2ccc(NC(=O)c3ccc(Cl)c([N+](=O)[O-])c3)cc12 [TCMDC-125441]	-11.29
CCS[C@@H]1O[C@H](COC(=O)c2ccccc2)[C@H](OC(=O)c2ccccc2)[C@H](OC(=O)c2ccccc2)[C@H]1OC(=O)c1ccccc1 [TCMDC-137162]	42.17
COc1cccc(-c2cccc(CNC3CCN(CC4Cn5c(=O)ccc6ccc(F)c4c65)CC3)c2)c1 (centres unmarked) [TCMDC-134412]	5.028
CN(C(=O)Nc1ccc(F)cc1)C1CCN(CCCCCNC(=O)/C=C/c2ccc(Cl)c(Cl)c2)CC1 [TCMDC-139492]	-6.373
Cc1ccc(C2CC(c3cccs3)=NN2C(=O)c2ccc(Br)o2)cc1 (centres unmarked) [TCMDC-125610]	12.81
O=C(Nc1ccnc(-c2cccnc2)n1)c1cc(C(F)(F)F)cc(C(F)(F)F)c1 [TCMDC-124516]	40.18
CCc1ccc(NC(=O)c2ccc(CN3CCCN(Cc4cccc(O)c4)CC3)cc2)cc1 [TCMDC-136439]	-0.6993
COc1ccc2nccc([C@@H](O)CN3CCC(NCc4ccc5scnc5c4)CC3)c2c1 [TCMDC-141081]	9.68
N#Cc1ccc(/C=C/C(=O)NCCCCCN2CCN(C(=O)Nc3ccc(Cl)c(C(F)(F)F)c3)CC2)cc1 [TCMDC-136098]	-6.45
CCCC1N=C(N)N=C(N)N1c1cccc([N+](=O)[O-])c1 (centres unmarked) [TCMDC-131299]	-55.59
CCc1ccc(C2=Nn3c(nnc3-c3cccs3)SC2)cc1 [TCMDC-124336]	80.16
Nc1cc(C(F)(F)F)ccc1Cl [TCMDC-123950]	13.58
CCOc1ccc2nc3cc([N+](=O)[O-])ccc3c(N)c2c1 [TCMDC-125852]	122.1
CN(C(=O)Nc1ccc(C(F)(F)F)cc1)C1CCN(CCCCCNC(=O)/C=C/c2ccc(Cl)c(Cl)c2)CC1 [TCMDC-139524]	54.85
O=C(/C=C/c1ccc(Cl)c(Cl)c1)NCCCCN1CCCN(C(=O)Nc2ccc(C(F)(F)F)cc2)CC1 [TCMDC-135930]	-28.77
CCOC(=O)c1ccc(NC(=O)NCCCC2CCCN(CCCCCNC(=O)/C=C/c3ccc(Cl)c(Cl)c3)C2)cc1 (centres unmarked) [TCMDC-139516]	55.81
COc1cc(C(=O)N2CCN(C(C)C)CC2)ccc1CN(C)CCCCN1CCN(c2cccc(Cl)c2Cl)CC1 [TCMDC-136506]	104.3
N#Cc1c(Cl)cccc1Oc1ccc(S(=O)(=O)N2CCC(CN3CCC(c4c[nH]c5ccccc45)CC3)CC2)cc1 [TCMDC-140172]	15.16
O=C(/C=C/c1ccc(Cl)c(Cl)c1)NCCCCCN1CCCC(CCCNC(=O)Nc2ccc(C(F)(F)F)cc2)C1 (centres unmarked) [TCMDC-139517]	56.6
O=C(NC1CCCCC1)c1ccc(O)c(-c2cccc(C(F)(F)F)c2)c1 [TCMDC-140163]	-1.763
Fc1ccc2[nH]c(-c3ccc(-c4ccc(CNCC5CCCO5)cc4)cc3)nc2c1.O=C(O)C(F)(F)F (centres unmarked) [TCMDC-133097]	36.17
O=C(NCC1CCN(C/C=C/c2ccccc2)CC1)Nc1ccc(Oc2ccccc2)cc1 [TCMDC-139153]	95.36
COc1ccc(CC(=O)NC2CCN(c3ccnc4cc(Cl)ccc34)C2)cc1 (centres unmarked) [TCMDC-133665]	-28.04
CCNc1cc(C)nc(Nc2ccc(NC(=O)c3ccco3)cc2)n1 [TCMDC-124982]	-6.858
Cc1nc2nc(N)nc(N)c2c(C)c1Cc1ccc(C(N)=O)cc1 [TCMDC-137641]	15.14
Nc1ccc2c(N)c3ccccc3nc2c1 [TCMDC-132034]	26.54
CC(O)C(=O)O.CCOc1ccc2nc3cc(N)ccc3c(N)c2c1 [TCMDC-123983]	24.81
COc1cc(C(=O)N2CCN(C(C)C)CC2)ccc1CN(C)CCCN1CCN(c2cccc(Cl)c2Cl)CC1 [TCMDC-136519]	106.1
O=C(NCCCCN1CCN(CC=Cc2ccccc2)CC1)c1ccc(NC(=O)c2cc(Cl)cc(Cl)c2)cc1 [TCMDC-138216]	-21.85
CC(C)N1CCN(c2ccc(OCCCCN3CCN(c4cccc(Cl)c4Cl)CC3)cc2Cl)CC1 [TCMDC-136639]	-87.47
